Ref: the supplement of paper PMC9170038

- Test system: MS2 coat protein
- ASSAY_OVERVIEW: apparent KD of MS2 coat protein; designed switch direction (-1 OFF switch, 1 ON switch): -1; higher = weaker reporter binding
- CONDITION: Eterna round: R95; input ligand: microRNA oligo, concentration not stated
Response key: satisfied means apparent KD of MS2 coat protein >= 20 nM; not satisfied means apparent KD of MS2 coat protein < 20 nM.

| SEQUENCE_STRING | CATEGORY |
| --- | --- |
| AGUACUAACACGUUUGUGUUAGUACAAUAAGCUUGUGAAACAUGAGGAUCACCCAUGUCCUCAUAAGCUCGUCUUAU [salish99_TOv2_r3_069] (puzzle: Sensor v3, turn-off variant 2) | satisfied |
| GAAAACGCAGAGGAUAUUCCAGAUCUAAGCUGCGAAGAAGGCUGCACAUGAGGAUCACCCAUGUGGUCUUUAAA [Maoned] (puzzle: Exclusion 6) | not satisfied |
| AGUACUAACACGAAAGUGUUAGUAAAAUAAGCUUGUGGUACAUGAGGAUCACCCAUGUCCUCAUAAGCUCGUCUUAU [Mat - Sensor v3 - Turn-off var 2 - D42] (puzzle: Sensor v3, turn-off variant 2) | satisfied |
| AAGUACCGUCACGAUAGUGAUGGUACAACAAGUAGUGAAACAUGAGGAUCACCCAUGUCCUCAAUUGCUCGUCUUAU [Sensor 3 - 81] (puzzle: Sensor v3, turn-off variant 2) | satisfied |
| GAUCCACAUGAGGAUCACCCAUGUGAGGAUAUGAUACUAUGUACUUCGGUACAUAGUAUCAGAAGGCAUAUUGA [Ex1-3: 46] (puzzle: Exclusion 1) | satisfied |
| CUUAUGUGAGGAUAUCAGUAGUGAUACGAUAGUAUUACUGCUGAGAAGGCACAUGAGGAUCACCCAUGUUCCUC [Exclusion 4 - Mod Omei Ex4 344 mod 4 v.2] (puzzle: Exclusion 4) | satisfied |
| AACGUGGCUUAGGAUAUUGCUACGCAAAAGUAACAAGAAGGAGGCACAUGAGGAUCACCCAUGUGAUUCGUUGA [Ineror] (puzzle: Exclusion 6) | not satisfied |
| UUAUAUAGAGUGAGGAUAUGCUGGUCCUUGGAUCAGCAGAAGGCACAUGAGGAUCACCCAUGUAAAAUAAUAUU [Mat - Exclusion 4 - JL Mod - D39] (puzzle: Brourd's mod of Exclusion 4) | satisfied |
| AUUUUGUCAGGAUAUGAGUAGUAGGACGAAAGUGCUACUACUUAGAAGGGACAUGAGGAUCACCCAUGUCUUCC [Bring Us a Shrubbery-05] (puzzle: Exclusion 4) | not satisfied |
